# Tested on: P. falciparum female gametocytes
# assayName: P. falciparum Dual Gamete Formation Assay (PfDGFA), female readout (Pfs25-positive female gametes)
# Assay type: cell-based, Plasmodium falciparum NF54
The entries below are paired with their reported Cytotox ratio Pf Female.
readoutKind: Cytotox ratio Pf Female

O=C(NC1CCN(Cc2ccccc2)CC1)c1cc(C(=O)NC2CCN(Cc3ccccc3)CC2)cc(C(=O)NC2CCN(Cc3ccccc3)CC2)c1 [TC20] : 10.0
O=C(Cc1cccc(O)c1)NCC(Cc1ccc(O)cc1)c1ccccc1 (centres unmarked) [TC08] : 10.0
CNC(=O)c1cnc(Nc2ccc(N3CCN(C)CC3)cc2)nc1Nc1ccccc1OC.O=C(O)C(F)(F)F [TC16] : 3.6
C=CCNc1cc(-c2ccccn2)nc(-c2ccccn2)n1 [TC01] : 2.6
COCCCNC(=S)NN=C(C)c1ccccn1 [TC19] : 21.8
